- Test system: C. trachomatis-specific CD8^+ murine T cells
- RUN_DESCRIPTION: IFN-γ ELISA of C. trachomatis-specific CD8+ murine T cells stimulated with peptide-pulsed macrophages
- Type: cell-based, mouse
- CONDITION_SUMMARY: CT242 and CT812 peptides (CD8+ Ag); fold-increase of IFN-γ production compared to untreated T-lymphocytes (footnote)

BIOSEQUENCE: SNLKRMQKI [CT242 peptide tested with CD8+ T cells]
EXPERIMENTAL_SYSTEM: C. trachomatis-specific CD8^+ murine T cells
IFN-γ Produced −fold [fold]: 10
--
BIOSEQUENCE: LEFASCSSL [CT812 peptide tested with CD8+ T cells]
EXPERIMENTAL_SYSTEM: C. trachomatis-specific CD8^+ murine T cells
IFN-γ Produced −fold [fold]: 1.5
--
BIOSEQUENCE: GQSVNELVY [CT812 peptide tested with CD8+ T cells]
EXPERIMENTAL_SYSTEM: C. trachomatis-specific CD8^+ murine T cells
IFN-γ Produced −fold [fold]: 0.8
--
BIOSEQUENCE: SQAEGQYRL [CT812 peptide tested with CD8+ T cells]
EXPERIMENTAL_SYSTEM: C. trachomatis-specific CD8^+ murine T cells
IFN-γ Produced −fold [fold]: 0.8
--
BIOSEQUENCE: AALYSTEDL [CT812 peptide tested with CD8+ T cells]
EXPERIMENTAL_SYSTEM: C. trachomatis-specific CD8^+ murine T cells
IFN-γ Produced −fold [fold]: 0.5
--
BIOSEQUENCE: FSVTNPVVF (listed as Chlamydia trachomatis) [amino acids 103-111 of the CT812 polypeptide]
EXPERIMENTAL_SYSTEM: C. trachomatis-specific CD8^+ murine T cells
IFN-γ Produced −fold [fold]: 65
--
BIOSEQUENCE: FQEKDADTL [CT812 peptide tested with CD8+ T cells]
EXPERIMENTAL_SYSTEM: C. trachomatis-specific CD8^+ murine T cells
IFN-γ Produced −fold [fold]: 2.0
--
BIOSEQUENCE: LNQSNLKRM (listed as Chlamydia trachomatis) [amino acids 112-120 of the CT242 polypeptide]
EXPERIMENTAL_SYSTEM: C. trachomatis-specific CD8^+ murine T cells
IFN-γ Produced −fold [fold]: 160
--
BIOSEQUENCE: FTSSNLDSP [CT812 peptide tested with CD8+ T cells]
EXPERIMENTAL_SYSTEM: C. trachomatis-specific CD8^+ murine T cells
IFN-γ Produced −fold [fold]: 1.0
--
BIOSEQUENCE: QSVNELVYV [CT812 peptide tested with CD8+ T cells]
EXPERIMENTAL_SYSTEM: C. trachomatis-specific CD8^+ murine T cells
IFN-γ Produced −fold [fold]: 0.3
